Listed here are compounds together with their documented inhibition at 1 µM.
# test target: glucocorticoid receptor (Rattus norvegicus)
# Construct: from tissue; host or cells: liver cytosol of male Sprague-Dawley rats
# Sequence (P06536 1-795): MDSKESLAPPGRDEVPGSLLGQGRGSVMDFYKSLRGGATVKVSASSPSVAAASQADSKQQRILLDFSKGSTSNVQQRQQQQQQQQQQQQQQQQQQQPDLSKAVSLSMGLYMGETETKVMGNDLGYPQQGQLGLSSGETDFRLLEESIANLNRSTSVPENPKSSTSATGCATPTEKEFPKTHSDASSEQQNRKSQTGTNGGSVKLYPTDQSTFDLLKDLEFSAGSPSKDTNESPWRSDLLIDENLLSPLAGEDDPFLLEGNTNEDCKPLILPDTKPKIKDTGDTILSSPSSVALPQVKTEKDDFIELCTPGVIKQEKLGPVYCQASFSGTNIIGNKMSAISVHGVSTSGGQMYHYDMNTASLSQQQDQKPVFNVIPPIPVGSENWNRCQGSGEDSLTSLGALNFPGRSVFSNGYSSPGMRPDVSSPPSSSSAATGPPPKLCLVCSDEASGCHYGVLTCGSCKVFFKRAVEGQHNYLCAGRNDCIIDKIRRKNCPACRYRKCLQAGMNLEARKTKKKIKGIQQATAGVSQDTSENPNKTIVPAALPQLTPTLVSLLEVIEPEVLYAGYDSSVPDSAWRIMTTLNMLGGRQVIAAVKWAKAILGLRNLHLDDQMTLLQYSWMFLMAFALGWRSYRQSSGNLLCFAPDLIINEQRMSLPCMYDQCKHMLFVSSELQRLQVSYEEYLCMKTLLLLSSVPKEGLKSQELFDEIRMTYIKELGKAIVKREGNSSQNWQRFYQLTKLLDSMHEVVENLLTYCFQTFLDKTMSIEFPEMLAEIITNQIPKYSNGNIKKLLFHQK
# test method notes: Glucocorticoid receptor assay: inhibition of [3H]-dexamethasone binding, liver cytosol
# settings: Table 4′; E^−6; read-out: % Inhibition Glucocorticold Receptor E^−6
I only need the number, in %, no unit after it.

Recorded results for 3 compounds are shown here.
* COCCOc1ccc2c(c1)C(=O)CC1C2CCC2(C)C1CCC21CCC(C)(C)C(=O)O1 (centres unmarked) | 0
* CC1(C)CC[C@@]2(CCC3C4CCc5cc(C(N)=O)ccc5C4CCC32C)OC1=O (some centres unmarked) | 0
* COCCOc1cc2c(cc1C(N)=O)C1CC[C@@]3(C)C(CC[C@@]34CCC(C)(C)C(=O)O4)C1CC2 (some centres unmarked) | 0

I am curious: what inhibition at 1 µM value has been reported for CC1(C)CCC2(CCC3C4CCc5ccccc5C4CCC32C)OC1=O (centres unmarked) ?
5

For the compound CC1(C)CC[C@@]2(CCC3C4CCc5cc(F)ccc5C4CC[C@@]32C)OC1=O (some centres unmarked) , what inhibition at 1 µM is on record?
0

What measured inhibition at 1 µM goes with CN(C)CCOc1ccc2c(c1)CCC1C2CCC2(C)C1CCC21CCC(C)(C)C(=O)O1 (centres unmarked) ?
3

Find the recorded inhibition at 1 µM belonging to CSCCOc1ccc2c(c1)CCC1C2CCC2(C)C1CCC21CCCC(=O)O1 (centres unmarked) and report it.
0

Any idea what its inhibition at 1 µM is? The compound is CC1(C)CCC2(CCC3C4CCc5c(cc(Cl)c(O)c5Cl)C4CCC32C)OC1=O (centres unmarked)
2

The origin of these recorded values is patent US6541463B1.
